Reference for the values: PubChem BioAssay (NCI)

Assignment: determine reported TGI for the given compounds.
# Tested on: RXF 393 renal
# measurement.protocol: NCI tumour cell line growth inhibition, 48 h
Give bare numbers, in µM.

Example compounds with recorded TGI:
Given the entry `COc1ccc(/C=C/C(=O)/C=C/c2ccc(OC)cc2)cc1` , what TGI was observed with RXF 393 renal?
36.6

Given the entry `O=C1c2ccccc2C(=O)[C@@]23O[C@@]12C1(Oc2cccc4cccc(c24)O1)[C@@H]1O[C@@H]1[C@@H]3O` , what TGI was observed with RXF 393 renal?
10.4

Given the entry `Nc1nc(Cl)c2ncn(Cc3ccc(CCl)cc3)c2n1` , what TGI was observed with RXF 393 renal?
7.26

Given the entry O=C1CCCCCCCC/C=C\CC(c2ccco2)O1 (stereo unspecified) , what TGI was observed with RXF 393 renal?
65.2

Please give TGI, item by item, for the list that follows.
1. COc1ccc(-c2c(=O)[nH]n3c(=S)nc(-c4ccccc4)[nH]c23)cc1OC
2. COC(=O)C1=C(C(=O)ON)C2C=CC1(C(Cc1ccccc1)Nc1ccccc1)O2 (stereo unspecified)
3. CC(C)(C)c1nn(-c2ccccc2)c2c1C(=O)CSC(c1ccccc1Cl)N2 (stereo unspecified)

[32.4, 3.2, 3.11]

====

# Tested on: UO-31 renal
# measurement.protocol: NCI tumour cell line growth inhibition, 48 h
result.type: TGI

Given the entry `COC(=O)/C([Se]c1c(C)cc(C)cc1C)=C(\[Se]c1c(C)cc(C)cc1C)C(=O)OC` , what TGI was observed with UO-31 renal?
> 100 µM

Given the entry `O=c1[nH]/c(=C/c2ccc(OCc3ccccc3)cn2)c(=O)[nH]/c1=C/c1ccc([N+](=O)[O-])cc1` , what TGI was observed with UO-31 renal?
> 100 µM

Given the entry `Cc1cc2nc(CCC(=O)O)c(=O)[nH]c2cc1C` , what TGI was observed with UO-31 renal?
> 100 µM

Given the entry COC(=O)C1=C(C(=O)ON)C2C=CC1(C(Cc1ccccc1)Nc1ccccc1)O2 (stereo not given) , what TGI was observed with UO-31 renal?
2.8 µM

Given the entry `O=c1nc2n(-c3ccc(Cl)cc3)c3ccc([N+](=O)[O-])cc3cc-2c(=O)[nH]1` , what TGI was observed with UO-31 renal?
53.6 µM

Given the entry `Cc1ccc(C)n1-n1c(Cc2ccccc2)n[nH]c1=O` , what TGI was observed with UO-31 renal?
> 100 µM

Given the entry `CCOc1ccc(-c2nonc2NC(=O)c2cccc(C)c2)cc1OCC` , what TGI was observed with UO-31 renal?
> 100 µM

Given the entry `COc1cc(NC(C)=O)ccc1C(=O)N/N=C/c1ccc(Cl)cc1Cl` , what TGI was observed with UO-31 renal?
> 100 µM

Given the entry `O=C(COc1ccc(OCC(=O)N2C(=O)CSC2=Nc2ccccc2)cc1)N1C(=O)CSC1=Nc1ccccc1` , what TGI was observed with UO-31 renal?
> 100 µM

***
Given the entry `Nc1c2c(=O)[nH]c(=O)c2c(N)c2c(=O)c3ccccc3c(=O)c12` , what TGI was observed with UO-31 renal?
31.1 µM

====

Assignment: determine reported GI50 for the given compounds.
# Test system: SK-MEL-2 melanoma
# measurement.protocol: NCI tumour cell line growth inhibition, 48 h

Example compounds with recorded GI50:
Given the entry `CCCc1cc2c(=O)c(C(=O)OC)c[nH]c2cc1N(CC)CC` , what GI50 was observed with SK-MEL-2 melanoma?
36.1 µM

Given the entry CC(=O)[CH-]C(=O)c1ccccc1.CC(=O)[CH-]C(=O)c1ccccc1.CC(C)CCCC(C)[C@H]1CCC2[C@@H]3CC=C4C[C@@H]([O-])CC[C@]4(C)C3CC[C@@]21C.CC[O-].[Ti+4] (some centres undefined) , what GI50 was observed with SK-MEL-2 melanoma?
22.4 µM

Given the entry COC1CC2CCC(C)C(O)(O2)C(=O)C(=O)N2CCCCC2C(=O)OC(C(C)CC2CCC(O)C(OC)C2)CC(=O)C(C)C=C(C)C(O)C(OC)C(=O)C(C)CC(C)/C=C/C=C/C=C1C (centres undefined) , what GI50 was observed with SK-MEL-2 melanoma?
5.19 µM

Given the entry `CCOc1ccc(-c2nonc2NC(=O)c2cccc(C)c2)cc1OCC` , what GI50 was observed with SK-MEL-2 melanoma?
> 100 µM

Given the entry `c1ccc2[nH]c(-c3ccc(NN=Nc4ccncc4)cc3)nc2c1` , what GI50 was observed with SK-MEL-2 melanoma?
15.4 µM

Given the entry O=C1CCCCCCCC/C=C\CC(c2ccco2)O1 (centres undefined) , what GI50 was observed with SK-MEL-2 melanoma?
21.6 µM

Given the entry O=c1ccn(C2OC(CO/N=C/c3ccc(O)c(O)c3O)C(O)C2O)c(=O)[nH]1 (centres undefined) , what GI50 was observed with SK-MEL-2 melanoma?
57.4 µM

Given the entry COC(=O)C1=C(C(=O)ON)C2C=CC1(C(Cc1ccccc1)Nc1ccccc1)O2 (centres undefined) , what GI50 was observed with SK-MEL-2 melanoma?
11.6 µM

Given the entry `O=C1C(Cl)=C(Nc2cccc(Cl)c2)C(=O)N1Cc1ccccc1Cl` , what GI50 was observed with SK-MEL-2 melanoma?
4.33 µM

Given the entry `O=C(Nc1cc(Cl)cc(Cl)c1)c1ccc(NC2=C(Cl)C(=O)N(Cc3ccc(Cl)cc3Cl)C2=O)cc1` , what GI50 was observed with SK-MEL-2 melanoma?
23.5 µM

Please give GI50, item by item, for the list that follows.
1. NC(N)=N/N=C\c1cccc(OCc2ccccc2)c1
2. CC(C)[C@H](CO)Nc1nc(Nc2ccc(C(=O)NCCNS(=O)(=O)c3cccc4c(N(C)C)cccc34)c(Cl)c2)c2ncn(C(C)C)c2n1
3. Nc1c(Br)cc(Br)c2c1[nH]c(=O)c1ccccc12
4. O=C1c2cc3c(cc2-c2c1c1ccc(Cl)cc1c(=O)n2CCCNCCO)OCO3

3.31 µM
2.67 µM
20.7 µM
1.97 µM

====

# System: CCRF-CEM leukemia
# measurement.protocol: NCI tumour cell line growth inhibition, 48 h
Assignment: determine reported TGI for the given molecules.

Example molecules with recorded TGI:
Given the entry `O=c1c2ccccc2n(C[C@H]2CO2)c2ccccc12` , what TGI was observed with CCRF-CEM leukemia?
21.7 µM

Given the entry COc1ccc(C2CC(c3ccccc3)=Nc3c(-c4ccccc4)nnn32)cc1 (stereo not given) , what TGI was observed with CCRF-CEM leukemia?
> 100 µM

Given the entry O=C1NC(O)C(c2c[nH]c3ccccc23)=C1c1c[nH]c2ccccc12 (stereo not given) , what TGI was observed with CCRF-CEM leukemia?
> 25 µM

Given the entry `COc1ccc(C(=O)Cc2c(C(=O)c3ccccc3)c3ccccc3n2C(=O)c2ccccc2)cc1` , what TGI was observed with CCRF-CEM leukemia?
> 100 µM

Please give TGI, item by item, for the list that follows.
1. COc1ccccc1CCN=C1NC(=O)/C(=C/c2ccc3ncccc3c2)S1
2. COc1ccc2c(=O)c3ccoc3n(CC=C(C)C)c2c1
3. COc1ccc2nc3ccc(OC)cc3c(SCc3ccc([N+](=O)[O-])cc3)c2c1
4. CC1=C2C[C@H]3[C@@H](CC[C@@H]4CC(NS(C)(=O)=O)CC[C@@]43C)[C@@H]2CC[C@@]2(C1)O[C@@H]1C[C@H](C)CN[C@H]1[C@H]2C (stereo not given in full)
5. O=NNc1ccc(S(=O)(=O)c2ccccc2)cn1

1. 23 µM
2. > 100 µM
3. > 100 µM
4. 28.4 µM
5. > 100 µM

Given the entry `COC(=O)c1sc2ncc3c(c2c1N)CCCCCC3` , what TGI was observed with CCRF-CEM leukemia?
> 100 µM

====

Assignment: determine reported GI50 for the given compounds.
# System: SNB-19 CNS
# measurement.protocol: NCI tumour cell line growth inhibition, 48 h

Request the reported GI50 associated with `c1ccc2[nH]c(-c3ccc(NN=Nc4ccncc4)cc3)nc2c1`
> 100 µM

Request the reported GI50 associated with `CC(=O)[CH-]C(=O)c1ccccc1.CC(=O)[CH-]C(=O)c1ccccc1.CC1(C)C2CCC1(C)C([O-])C2.CC1(C)C2CCC1(C)C([O-])C2.[Ti+4]`
25.8 µM

Request the reported GI50 associated with `Cc1cc(S(N)(=O)=O)c(S/C(CC(C)C)=N\Nc2ccc([N+](=O)[O-])cc2)cc1Cl`
13.2 µM

Request the reported GI50 associated with `O=C1/C(=C/c2ccccc2)CN(C(=O)c2cccnc2)C/C1=C\c1ccccc1`
1.49 µM

Request the reported GI50 associated with `O=C(CNc1ccc2c(c1)C(=O)c1ccccc1C2=O)Nc1ccc2c(c1)C(=O)c1ccccc1C2=O`
1.45 µM

Please give GI50, item by item, for the list that follows.
1. COc1ccc(/C=C\c2cc(OC)c(OC)c(OC)c2)cc1OC(=O)c1cccc(Cn2cc(CCOC(=O)[C@H](N)Cc3cn(C)c4ccccc34)nn2)c1
2. CC[C@H](Nc1nc(NCc2cnc(C)cc2C)c2ncn(C(C)C)c2n1)[C@@H](C)O
3. COc1cc2c3c(n(CCCN)c(=O)c2cc1OC)-c1cc2c(cc1/C3=C\CCN)OCO2

1: < 0.01 µM; 2: 0.318 µM; 3: 3.46 µM

Please give GI50, item by item, for the list that follows.
1. COc1cc(C)c(Cl)cc1C1=NN(c2ccc(S(N)(=O)=O)cc2)C(/C=C/c2ccccc2)C1 (stereo not drawn)
2. C=C(CN1C(=O)[C@H]2CCCN2C(=O)c2ccccc21)c1ccc(C(=O)O)cc1
3. O=c1c2ccccc2n(C[C@H]2CO2)c2ccccc12

8.08 µM
> 100 µM
2.3 µM

Please give GI50, item by item, for the list that follows.
1. Cc1ccc(-n2c3c(c4c(CN(C)C)c(O)ccc42)CCc2ccccc2C3=O)cc1
2. CC(=O)[CH-]C(=O)c1ccccc1.CC(=O)[CH-]C(=O)c1ccccc1.[Eu+3].[OH-].[OH3+]

["> 100 µM", "> 100 µM"]
